Documented GI50 across a set of compounds
tested on: HCT-116; experiment: NCI tumour cell line growth inhibition, 48 h
Active and inactive are the calls of the source. No stated cut-off is given here; in the data, active = GI50 up to about 1.1 µM and inactive = higher.

Some solved entries appear below for comparison.
{"columns": ["Compound", "Assay value"],
 "data": [
  ["CSc1scc2c1/C(=N/NC(N)=O)CCC2", "70 µM (inactive)"],
  ["FC(F)(F)c1ccccc1/C=N/C12CC3CC(CC(C3)C1)C2", "> 100 µM (inactive)"],
  ["CCCCOC(=O)c1cc(C(=CCC[C@H]2CC[C@@]3(C)[C@@H](CC[C@@H]4[C@@H]3CC[C@]3(C)[C@@H](C(C)CCCC(C)C)CC[C@@H]43)C2)c2cc(Cl)c(O)c(C(=O)OCCCC)c2)cc(Cl)c1O (some centres not stated)", "> 50 µM (inactive)"],
  ["COc1ccc2c(c1)CN([C@@H](C)[C@H]1CC[C@H]3[C@@H]4CC[C@H]5C[C@@H](O)CC[C@]5(C)[C@H]4CC[C@]13C)CO2", "2.17 µM (inactive)"],
  ["COc1ccc(/N=N/c2c(C)c(C#N)c(=S)n(C3OC(CO)C(O)C(O)C3O)c2-c2ccccc2)cc1 (configuration not stated)", "30.1 µM (inactive)"]
]}

Look up GI50 for this compound: `Cc1ccc(NC(=S)N/N=C2\C(=O)Nc3ccccc32)cc1`
> 100 µM (inactive)

Which GI50 is reported for this compound? CCc1ccc(Cc2ccc(CC)c(NC(=O)C(=O)C3NC(=S)NC3=O)c2CC)c(CC)c1NC(=O)C(=O)C1NC(=S)NC1=O (configuration not stated)
> 100 µM (inactive)

Recorded values, source ChEMBL document CHEMBL1201862.
